Provenance of the data: patent US8481501B2

A collection of compounds and their measured Emax
# Measured On: kappa opioid receptor (Homo sapiens, UniProt P41145)
# Sequence (P41145 whole entry): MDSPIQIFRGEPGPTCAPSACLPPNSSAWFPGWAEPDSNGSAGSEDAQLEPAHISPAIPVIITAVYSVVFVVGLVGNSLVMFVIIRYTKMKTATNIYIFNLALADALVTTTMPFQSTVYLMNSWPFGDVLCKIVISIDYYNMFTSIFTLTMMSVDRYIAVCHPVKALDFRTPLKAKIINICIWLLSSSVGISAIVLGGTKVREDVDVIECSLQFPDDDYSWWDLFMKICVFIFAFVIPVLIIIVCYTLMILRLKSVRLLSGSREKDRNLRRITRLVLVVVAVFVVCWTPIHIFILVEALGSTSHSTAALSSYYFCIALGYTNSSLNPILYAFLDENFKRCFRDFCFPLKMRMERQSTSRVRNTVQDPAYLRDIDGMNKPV
# Assay: biochemical
# Format: biochemical
# Design: expressed in transfected cells; host or cells: transfected cells
# Experimental Setup: Table 2; read-out: kappa % stimulation
Provide the reading as a plain figure in %.

[
  {
    "Compound": "CN1CCC23c4c5ccc(O)c4OC2C(NC(=O)c2ccccc2)C=CC3C1C5 (stereo not drawn) [13d, 60-Benzamidomorphine]",
    "Measured On": "kappa opioid receptor (Homo sapiens, UniProt P41145)",
    "Emax [%]": 81.1
  },
  {
    "Compound": "CN1CCC23c4c5ccc(O)c4OC2C(NC(=O)Cc2cccs2)C=CC3C1C5 (stereo not drawn) [13h, 6β-(Thiophen-2′-yl)acetamidomorphine]",
    "Measured On": "kappa opioid receptor (Homo sapiens, UniProt P41145)",
    "Emax [%]": 98
  },
  {
    "Compound": "COC(=O)[C@H]1OC(CC(=O)NC2C=CC3C4Cc5ccc(OC)c6c5C3(CCN4C)C2O6)[C@H](OC(C)=O)[C@@H](OC(C)=O)[C@@H]1OC(C)=O (stereo partly drawn)",
    "Measured On": "kappa opioid receptor (Homo sapiens, UniProt P41145)",
    "Emax [%]": 30.6
  },
  {
    "Compound": "COC(=O)c1cccc(C(=O)NC2C=CC3C4Cc5ccc(O)c6c5C3(CCN4C)C2O6)c1 (stereo not drawn) [13e, 6β-(3′-Carbomethoxy)benzamidomorphine]",
    "Measured On": "kappa opioid receptor (Homo sapiens, UniProt P41145)",
    "Emax [%]": 88.6
  },
  {
    "Compound": "COc1cccc(CC(=O)NC2C=CC3C4Cc5ccc(O)c6c5C3(CCN4C)C2O6)c1 (stereo not drawn) [13a, 6β-(3-Methoxyphenyl)acetamidomorphine]",
    "Measured On": "kappa opioid receptor (Homo sapiens, UniProt P41145)",
    "Emax [%]": 89
  }
]

Q. What value of measured Emax is listed for CC(=O)OC[C@H]1OC(SC2C=CC3C4Cc5ccc(OC(C)=O)c6c5C3(CCN4C)C2O6)[C@H](OC(C)=O)[C@@H](OC(C)=O)[C@@H]1OC(C)=O (stereo partly drawn) ?
A. 36.9
